Experiment: gradient 5% acetonitrile 3 min, to 50% in 2 min, to 85% in 15 min, held 3 min, 100 µL/min
Conditions: column: Zorbax Extend-C18 2.1 x 50 mm; eluents: water / acetonitrile, 0.1% formic acid
Please note: Satisfied applies when RP-LC retention time is 700 s or greater, and Not satisfied applies otherwise.

| Compound | Answer label |
| --- | --- |
| COc1cccc(-c2ccc(=O)n(Cc3nc(-c4ccc(OC)c(OC)c4)no3)n2)c1 | Satisfied |
| COCCC1CCN(C(=O)CN(C)C(=O)c2cccn2C)CC1 | Not satisfied |
| COc1cc(NC(=O)N2CC(C)Sc3ccccc32)cc(OC)c1OC (centres undefined) | Satisfied |
| O=C(Nc1cccc(Cl)c1)N1CCN(CCn2c(-c3ccncc3)nc3cccnc32)CC1 | Not satisfied |
| COc1ccc(CNC(=O)C2CCN(C(=O)N3CCOc4ccc(Cl)cc43)CC2)cc1 | Satisfied |
| Cc1ccc(S(=O)(=O)Cc2ccc(-c3nc(-c4cccc(-c5ccnn5C)c4)no3)cc2)cc1 | Satisfied |
| CC1CCN(S(=O)(=O)N2CCC(C(=O)N3CCCC(c4nc(C5CCOCC5)no4)C3)CC2)CC1 (centres undefined) | Satisfied |
| Cc1nc(NC(=O)CN(C)c2nc3c(C)ccc(C)c3s2)sc1C(=O)N(C)C | Satisfied |
